- assay-explanation: LD50 toxicity test, intraperitoneal injection in mice
- Assay type: in vivo
- particulars: mouse, in vivo, ip, read-out: LD50
property: LD50

Ask | Return the recorded LD50 value; entry: N=C(N)NCCC[C@H](NC(=O)[C@@H](N)CCCNC(=N)N)C(=O)NCCN(CCNC(=O)[C@H](CCCNC(=N)N)NC(=O)[C@@H](N)CCCNC(=N)N)CCNC(=O)[C@H](CCCNC(=N)N)NC(=O)[C@@H](N)CCCNC(=N)N
Reply | ~125 mg/kg

---

Can you tell me pEC50 for the items I'm about to list?
- Test system: neurons of the CA1 region of the hippocampus
- assay-explanation: Hippocampal slice assay: protection of CA1 neurons against hypoxic injury (recovery of population spike)
- Format: cell-based, male Sprague-Dawley rats
- particulars: Rattus norvegicus, Neuron, 1 h; 50% recovery 60 minutes after hypoxia; unstimulated slices; orthodromic; read-out: EC50, orthodromic PS amplitude, unstimulated slices
Numbers only, as −log10 of the molar value.

>  <compound>
N=C(N)NCCC[C@H](N)C(=O)NCCN(CCNC(=O)[C@@H](N)CCCNC(=N)N)CCNC(=O)[C@@H](N)CCCNC(=N)N [CYP-PA1, tris(arginyl-2-aminoethyl)amine]

>  <pEC50>
4.05

$$$$

# evaluate next
Ask | Return the recorded pEC50 value; entry: N=C(N)NCCC[C@H](NC(=O)[C@@H](N)CCCNC(=N)N)C(=O)NCCN(CCNC(=O)[C@H](CCCNC(=N)N)NC(=O)[C@@H](N)CCCNC(=N)N)CCNC(=O)[C@H](CCCNC(=N)N)NC(=O)[C@@H](N)CCCNC(=N)N [CYP-PA2, Tris(arginyl-arginyl-2-aminoethyl)amine]
Reply | 4.42
